Cited source for all entries: patent US9969742B2

Molecular target: PDE1A (Homo sapiens)
Construct: purchased Reaction Biology Corporation, Malvern, Pa
Sequence (P54750 whole entry): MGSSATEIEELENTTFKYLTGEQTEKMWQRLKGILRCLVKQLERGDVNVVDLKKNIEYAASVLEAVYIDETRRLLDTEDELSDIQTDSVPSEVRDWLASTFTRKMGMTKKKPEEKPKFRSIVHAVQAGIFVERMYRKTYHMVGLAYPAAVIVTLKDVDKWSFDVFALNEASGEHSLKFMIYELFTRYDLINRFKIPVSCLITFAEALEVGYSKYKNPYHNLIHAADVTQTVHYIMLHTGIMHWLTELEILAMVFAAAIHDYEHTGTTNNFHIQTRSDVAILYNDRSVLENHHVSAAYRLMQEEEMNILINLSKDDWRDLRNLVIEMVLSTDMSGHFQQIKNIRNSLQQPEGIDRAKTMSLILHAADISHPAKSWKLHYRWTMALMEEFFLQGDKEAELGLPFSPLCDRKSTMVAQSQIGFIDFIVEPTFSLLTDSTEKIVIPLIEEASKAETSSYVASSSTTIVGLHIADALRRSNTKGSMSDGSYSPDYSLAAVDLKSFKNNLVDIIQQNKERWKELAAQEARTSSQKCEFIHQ
Assay: Phosphodiesterase enzyme screening assay, PDE1A
Assay type: biochemical
Settings: Table 1; ratio of IC50 values; value greater than 1 indicates greater selectivity for PDE9A2
measurementLabel: PDE1A selectivity (versus PDE9A2)

>>> quantitativereadout("CC1CN(Cc2ccc3ncncc3c2)CC1c1nn2c(C3CCOCC3)ncc2c(=O)[nH]1 (single isomer, unassigned; (+))")
890
>>> quantitativereadout("CC1CN(Cc2ccc3cccnc3c2)CC1c1nn2c(C3CCOCC3)ncc2c(=O)[nH]1 (single isomer, unassigned; (-))")
334
>>> quantitativereadout("CC1CN(Cc2ccccc2C2CC2)CC1c1nn2c(C3CCOCC3)ncc2c(=O)[nH]1 (single isomer, unassigned; (-))")
685
>>> quantitativereadout("Cc1ccc(Cl)cc1-c1ncc2c(=O)[nH]c(C3CN(Cc4ccccc4)CC3C)nn12 (single isomer, unassigned; (+))")
276
